TESTED ON: UniProt:P29990
Sequence (P29990 1346-1475): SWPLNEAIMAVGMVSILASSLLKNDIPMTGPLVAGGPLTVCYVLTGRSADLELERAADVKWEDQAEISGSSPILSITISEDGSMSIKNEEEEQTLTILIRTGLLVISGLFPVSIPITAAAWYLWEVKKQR
Sequence (P29990 1476-2093): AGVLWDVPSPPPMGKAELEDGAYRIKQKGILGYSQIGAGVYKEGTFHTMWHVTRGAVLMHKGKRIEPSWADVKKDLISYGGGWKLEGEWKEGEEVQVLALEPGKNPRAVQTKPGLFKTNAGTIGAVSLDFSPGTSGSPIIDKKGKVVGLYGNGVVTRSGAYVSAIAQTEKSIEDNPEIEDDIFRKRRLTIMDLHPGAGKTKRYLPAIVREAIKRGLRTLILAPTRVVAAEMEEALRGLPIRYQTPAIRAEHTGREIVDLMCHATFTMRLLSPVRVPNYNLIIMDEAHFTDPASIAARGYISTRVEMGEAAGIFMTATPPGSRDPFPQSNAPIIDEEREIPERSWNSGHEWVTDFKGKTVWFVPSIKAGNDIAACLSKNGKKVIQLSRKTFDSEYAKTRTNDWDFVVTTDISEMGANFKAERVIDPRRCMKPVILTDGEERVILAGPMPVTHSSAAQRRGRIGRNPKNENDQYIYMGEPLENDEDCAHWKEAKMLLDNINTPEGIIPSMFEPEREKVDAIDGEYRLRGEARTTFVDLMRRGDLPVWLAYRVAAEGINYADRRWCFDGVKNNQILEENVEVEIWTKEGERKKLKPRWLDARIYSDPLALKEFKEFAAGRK
METHOD DESCRIPTION: DENV2 reporter gene assay
Assay type: cell-based
COND: HeLa, 24 h, read-out: DENV2proHeLa % (12.5 μM)
RECORDED ENDPOINT: inhibition at 12.5 µM (%)
Quick note: give the figure in %, leave out the unit.

Cc1cccc(COc2cccc(C(=O)Nc3ccc4c(c3)B(O)OC4)c2)c1 [Compound 29] :: 90

### Prompt # inhibition at 12.5 µM lookup, item O=C(Nc1ccc2c(c1)B(O)OC2)c1cccc(OCc2c(Cl)cccc2Cl)c1 [Compound 33]
### Response 85.6

### Prompt Consider the molecule shown here: N#Cc1ccc(COc2cccc(C(=O)Nc3ccc4c(c3)B(O)OC4)c2)cc1 [Compound 31] What is its recorded inhibition at 12.5 µM?
### Response 82.2

### Prompt Entry under review: O=C(Nc1ccc2c(c1)B(O)OC2)c1cccc(OCc2ccccc2)n1 [Compound 28] . Reported inhibition at 12.5 µM?
### Response 85.2

### Prompt Which inhibition at 12.5 µM is reported for this molecule? COc1cccc(COc2cccc(C(=O)Nc3ccc4c(c3)B(O)OC4)c2)c1 [Compound 30]
### Response 80.4

### Prompt Item O=C(Nc1ccc2c(c1)B(O)OC2)c1cccc(OCc2ccc(Cl)cc2)c1 [Compound 32] has what recorded inhibition at 12.5 µM?
### Response 83.6

Measured values drawn from paper PMC9272583 for this set.
